PROTOCOL DETAILS: Mammalian cell cytotoxicity assay (calcein/Hoechst)
Assay type: cell-based
CONDITION CONTEXT: human, Ect1/E6E7 cells (HPV-immortalized ectocervical epithelium), Ect1/E6E7 cell line, read-out: LC50
*1 amine or outer side, *2 acyl side, *3 side chain or, on linkers, in order; H or OH if unused. Where a SMILES comes first, the peptide text is derived from it. [ ]: non-standard residue; d: D form. X2 = CC[C@H](C)C[C@H](C)C[C@H](C)C[C@H](N[*:1])C(=O)[*:2]; X1 = CC[C@@H](C)[C@@H](O[*:1])C(=O)[*:2]; NMeVal(β-OH) = CN[C@H](C(=O)O)C(C)(C)O; aIle = CC[C@@H](C)[C@H](N)C(=O)O; NMeV = CN[C@H](C(=O)O)C(C)C; Sar = CNCC(=O)O
PROPERTY MEASURED: CC50 at 48 h

{"COMPOUND": "CC[C@H](C)C[C@H](C)C[C@H](C)C[C@@H]1NC(=O)[C@H](C(C)C)N(C)C(=O)[C@@H]([C@H](C)CC)OC(=O)[C@H](C(C)(C)O)N(C)C(=O)[C@H](CC(C)C)NC(=O)[C@H](C(C)C)N(C)C(=O)[C@H]([C@H](C)CC)NC(=O)[C@@H]2CCCN2C(=O)CN(C)C1=O [Compound 1, persephacin] (cyclo(L[NMeVal(β-OH)][X1][NMeV][X2][Sar]P[aIle][NMeV]))", "VALUE": "30 µM"}
